target: AchR (Homo sapiens); test: cell-based; type: cell-based; set-up: endogenous in cells; host or cells: TE671
Sequence (P02708 21-457): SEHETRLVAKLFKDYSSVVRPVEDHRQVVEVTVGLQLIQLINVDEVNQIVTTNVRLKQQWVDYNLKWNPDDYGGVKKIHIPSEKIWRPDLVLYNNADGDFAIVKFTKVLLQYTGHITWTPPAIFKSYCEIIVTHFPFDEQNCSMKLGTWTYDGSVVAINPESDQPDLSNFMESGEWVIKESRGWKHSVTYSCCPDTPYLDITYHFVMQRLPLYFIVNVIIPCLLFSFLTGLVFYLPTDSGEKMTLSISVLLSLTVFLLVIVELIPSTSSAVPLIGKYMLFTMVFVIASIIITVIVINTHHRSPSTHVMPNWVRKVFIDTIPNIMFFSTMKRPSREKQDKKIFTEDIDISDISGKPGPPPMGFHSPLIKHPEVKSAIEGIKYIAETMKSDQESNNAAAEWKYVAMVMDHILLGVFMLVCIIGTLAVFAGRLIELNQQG
Sequence (Q07001 22-517, further chain): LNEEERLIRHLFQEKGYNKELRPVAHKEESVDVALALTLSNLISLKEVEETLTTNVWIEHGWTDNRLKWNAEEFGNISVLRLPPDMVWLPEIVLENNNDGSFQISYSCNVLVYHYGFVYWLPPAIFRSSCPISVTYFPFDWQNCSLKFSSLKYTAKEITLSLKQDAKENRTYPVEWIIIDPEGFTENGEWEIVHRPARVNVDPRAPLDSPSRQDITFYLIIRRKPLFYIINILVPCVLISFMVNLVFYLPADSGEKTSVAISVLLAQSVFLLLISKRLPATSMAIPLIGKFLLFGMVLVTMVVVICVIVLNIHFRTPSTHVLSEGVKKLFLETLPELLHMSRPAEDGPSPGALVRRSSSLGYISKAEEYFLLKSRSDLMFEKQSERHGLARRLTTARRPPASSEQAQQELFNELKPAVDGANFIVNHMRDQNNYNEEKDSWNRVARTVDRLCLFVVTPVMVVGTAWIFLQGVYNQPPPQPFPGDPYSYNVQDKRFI
Sequence (P07510 23-517, further chain): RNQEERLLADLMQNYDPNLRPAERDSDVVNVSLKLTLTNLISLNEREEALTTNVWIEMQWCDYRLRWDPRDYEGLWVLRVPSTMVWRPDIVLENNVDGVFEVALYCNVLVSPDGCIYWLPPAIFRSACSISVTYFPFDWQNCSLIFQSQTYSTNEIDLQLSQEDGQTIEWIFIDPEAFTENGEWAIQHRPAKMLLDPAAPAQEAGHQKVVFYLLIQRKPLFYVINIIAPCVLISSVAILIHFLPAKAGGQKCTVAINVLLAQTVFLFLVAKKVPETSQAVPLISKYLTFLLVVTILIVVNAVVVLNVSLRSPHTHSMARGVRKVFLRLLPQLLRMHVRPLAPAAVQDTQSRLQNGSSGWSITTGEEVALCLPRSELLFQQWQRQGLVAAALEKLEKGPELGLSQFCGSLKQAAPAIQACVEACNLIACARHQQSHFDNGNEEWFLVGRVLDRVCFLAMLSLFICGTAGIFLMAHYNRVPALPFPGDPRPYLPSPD
Sequence (P11230 24-501, further chain): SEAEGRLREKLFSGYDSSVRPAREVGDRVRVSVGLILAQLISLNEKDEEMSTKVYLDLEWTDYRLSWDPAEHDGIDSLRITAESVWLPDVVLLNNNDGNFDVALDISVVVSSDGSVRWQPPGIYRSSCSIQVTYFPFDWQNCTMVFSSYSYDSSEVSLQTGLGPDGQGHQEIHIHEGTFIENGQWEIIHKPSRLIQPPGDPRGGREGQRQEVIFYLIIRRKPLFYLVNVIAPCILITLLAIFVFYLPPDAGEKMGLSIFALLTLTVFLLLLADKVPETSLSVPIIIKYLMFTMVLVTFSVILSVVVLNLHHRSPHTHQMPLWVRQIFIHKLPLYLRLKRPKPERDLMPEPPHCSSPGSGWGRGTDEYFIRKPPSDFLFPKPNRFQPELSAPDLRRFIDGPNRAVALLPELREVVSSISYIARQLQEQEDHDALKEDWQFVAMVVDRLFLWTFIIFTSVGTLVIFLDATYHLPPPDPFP
No end group written: not given here.
test-readout: pIC50
Keep it numeric: pIC50 is minus log10 of the concentration in mol/L.

Please report the recorded pIC50 for WTWKGRKSLLR [Spep-2, WTWKGRKSLLR] .
6.12

###

target: AchR (Homo sapiens); assay: ELISA of screened peptide phages on AchR versus streptavidin (OD450); assay type: binding; details: ELISA of selected 14-mer (L3) peptide phages on AchR, absorbance at 450 nm; Spep-2 positive control
Sequence (P02708 21-457): as the sequence (P02708 21-457) above
test-readout: OD
No unit in the answer, please; the number alone is enough.

{"substance": "L3-149 (PFGKFKRLENKDEC; AchR binding peptide) [Peptide L3-149]", "OD": 0.571}

For the substance shown here, L3-111 (TWLRGRRWPDKQPQ; AchR binding peptide) [Peptide L3-111] , give the reported OD.
0.976

Would you kindly repeat that for L3-98 (PNGKVRKRIRRRYF; AchR binding peptide) [Peptide L3-98] ?
0.685

Can you check L3-112 (ALPRVRKDSHREEI; AchR binding peptide) [Peptide L3-112] next?
0.731

And the next one, L3-135 (NDHRMRRSVDRGET; AchR binding peptide) [Peptide L3-135] ?
0.69
